The molecules below have reported IC50 for Prostaglandin G/H synthase 1 (Homo sapiens, UniProt P23219).
Assay Readout: IC50

INSERT INTO assay_data (item_smiles, target_or_system, reported_result) VALUES
  ('CC(C)(C)C#CC1=C(c2ccc(S(C)(=O)=O)cc2)CCC1=O', 'Prostaglandin G/H synthase 1 (Homo sapiens, UniProt P23219)', '> 100 µM'),
  ('CS(=O)(=O)c1ccc(C2=C(c3cncc(Br)c3)C(=O)CC2)cc1', 'Prostaglandin G/H synthase 1 (Homo sapiens, UniProt P23219)', '> 100 µM'),
  ('CS(=O)(=O)c1ccc(C2=C(c3cncc(Cl)c3)C(=O)CC2)cc1', 'Prostaglandin G/H synthase 1 (Homo sapiens, UniProt P23219)', '> 100 µM');

----------
Target: Prostaglandin G/H synthase 1 (Homo sapiens)
Sequence (P23219 whole entry): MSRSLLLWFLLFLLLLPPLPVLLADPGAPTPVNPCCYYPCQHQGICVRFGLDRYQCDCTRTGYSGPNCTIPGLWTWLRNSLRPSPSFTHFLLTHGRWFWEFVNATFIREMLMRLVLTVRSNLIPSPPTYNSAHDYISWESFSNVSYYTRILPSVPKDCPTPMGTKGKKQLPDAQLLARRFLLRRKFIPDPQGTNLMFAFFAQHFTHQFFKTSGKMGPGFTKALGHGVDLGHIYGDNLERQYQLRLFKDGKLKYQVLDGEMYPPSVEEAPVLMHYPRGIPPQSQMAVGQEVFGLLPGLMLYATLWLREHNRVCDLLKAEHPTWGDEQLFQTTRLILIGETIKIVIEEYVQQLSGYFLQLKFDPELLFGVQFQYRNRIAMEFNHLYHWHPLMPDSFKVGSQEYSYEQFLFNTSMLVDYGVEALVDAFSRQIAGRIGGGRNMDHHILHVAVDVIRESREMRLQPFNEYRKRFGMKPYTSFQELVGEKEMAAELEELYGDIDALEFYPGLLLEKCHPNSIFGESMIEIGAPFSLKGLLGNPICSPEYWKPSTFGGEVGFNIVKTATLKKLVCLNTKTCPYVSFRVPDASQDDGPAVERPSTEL
Format: tissue-based, Blood
Description: In vitro potency against human Prostaglandin G/H synthase 1 (hCOX-1) in the human whole blood assay.
Assay Readout: IC50

INSERT INTO measurements (item_smiles, reported_result) VALUES
  ('CS(=O)(=O)c1ccc(C2=C(c3cncc(Cl)c3)C(=O)CC2)cc1', '> 100 µM'),
  ('CS(=O)(=O)c1ccc(C2=C(c3cc(Cl)cc(Cl)c3)C(=O)CC2)cc1', '> 100 µM'),
  ('CS(=O)(=O)c1ccc(C2=C(c3cccnc3)C(=O)CC2)cc1', '73 µM');
